Readings of apparent KD of K4 kissing-loop reporter for the listed sequences
# Tested on: K4 kissing-loop RNA reporter;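 also: bound reporter read as fluorescence of individual clusters on recovered sequencing chips by microscopy, with normalized cluster intensities fitted with a binding model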
# ASSAY_PROCEDURE: apparent KD of K4 kissing-loop reporter; higher = weaker reporter binding
# EXPERIMENTAL_CONTEXT: Eterna round: R107; input ligand: theophylline 20 uM

{"columns": ["SEQUENCE_RECORD", "VALUE_UNITS", "apparent KD of K4 kissing-loop reporter"],
 "data": [
  ["UGGACCAGGAGUGAUGUUCCAAAAUGUGAUACCAGCCACGAAAGUGGCCCUUGGCAGCACUGCCAGGACGAAAACGUCCGGUCCU [#SwitchBubble 11 #StaticStem #K4Early]", "nM", 268],
  ["AAACGUUGGUCGGAUACCAGUUAGACCGAUAAGGUCAAAACUGGAGUGAUGUUCCCAAAUAACCCUUGGCAGCCGACCGACGAAA [MAT - Same State Theophlline B - Mod of Eli - D12]", "nM", 219],
  ["UGAUACCAGACUGAUACCAGCAAGUGAUGUUUGUUGAUCUAAAGCAGUCAAAGACUGCCUUGCCCUUGGCAGCAGUCUGGUAUCU [TheoBX 27 #SwitchBubble #StaticStem]", "nM", 354]
]}

---

# Tested on: MS2 coat protein
# ASSAY_PROCEDURE: apparent KD of MS2 coat protein; higher = weaker reporter binding
# EXPERIMENTAL_CONTEXT: Eterna round: R107; input ligand: arginine 13.2 mM
Measured apparent KD of MS2 coat protein determines class: Low (below 20 nM), Medium (20 nM to below 40 nM), High (40 nM or more)

{"columns": ["SEQUENCE_RECORD", "GROUP_LABEL"],
 "data": [
  ["CCCAGUUAUAACAAAGGAAUAAUACUCGAAGGAGCGUCAUAGUAGGCAGGUAGGUCGCGAGACAUGAGGAUCACCCAUGUAGAGA [qvvmullin]", "Medium"],
  ["UGGGUAGCAUAGAUUGAUAGCUACACUGAAGGAGCGAGGAUAACCUCAGGUAGGUCGCAGACAUGAGGAUCACCCAUGUAGAUGG [Same State Arginine A GF17]", "High"],
  ["UGUAUGUGAUCUGAUACCAGCUAGCGGAAACGCAAGCUUGAGGAUCACCCAAGUGGAAUAAGCCCUUGGCAGCAGAUCGCAUACU [Denovo 5 #StaticStem #AlternativeMS2]", "High"],
  ["GGACUAACCUGAAGGAGCGACACGCACAAAGUGCAAAUUCCUCCACACGAGGAUCACCCGUGUCAGGUAGGUCGCAGGUUAGUCG [ArgBX 28]", "Medium"],
  ["GGGAAAGGAGAAGAUACCAGCCGCCUCACAAGUCUACACUACAUGAGGAUCACCCAUGUGGGCCCUUGGCAGCUUGACCGCGAAA [theeternabot_exclusion_MS2_Theo_B_20]", "Medium"],
  ["GCCCUUGGCAGCGAUACCAGCCAAAAUUAAAAUAAACCUCUACAUGAGGAUCACCCAUGUGGCCCUUGGCAGCGAUACCAGCAAA [#ReversedDoubbleAptamer 1]", "Medium"],
  ["GGGUACAUCGCGGCCGCCACUUGUGUAAAUACAUGAGGAUCACCCAUGUCGAUGGAGACAUCGGCAAGGACCGGGUGAUGUACCG", "High"],
  ["ACAUUUAACUGAAGGAGCGUGAUAAACAUGAGGAUCACCCAUGUACCACAGAUUCUUAGAUCACAGGUAGGUCGCAGACUAAUGA [JR_ExcArginiB_Sub013]", "Low"],
  ["CGAGUAAGAACAAUCGAAUAACGGUUUUCGCGAGGACCGGUACGGCCGCCACUCGUGUGAAAUAACACAUGAGGAUCACCCAUGU [3'end-1]", "Medium"],
  ["CAAUUUCGAAUAGAUACCAGCUGUCAUAAACACAUGAGGAUCACCCAUGUGCUUCUCGUCAGCCCUUGGCAGCUAUAACUAGAGC [theeternabot_sameState_MS2_Theo_B_40]", "Low"],
  ["UUGUAUAUGCGAAGGAGCGGGAAAUAUAUAUAUAUAAUCCUAACAUGAGGAUCACCCAUGUCCCAGGUAGGUCGCGCAUAUGUGG [12.G]", "Medium"],
  ["CGGGUUCGGGCGGCCGCCACUUUGAUUGGGUGUGACAUGAGGAUCACCCAUGUUGUGGGUGAUCGGAGGACCGGGUUUGGGCUUG [Fidorka]", "High"],
  ["CUCAUCCACGCGGCCGCCACUAUAUUGUGGUGUGAAUGUGACGUAUUACAUGAGGAUCACCCAUGUAGGACCGGGCGUGGAUGAG [#07 Exclusion Tryptophan B]", "High"],
  ["AUCUCAUAGAGUGAUACCAGACUACAUGAGGAUCACCCAUGUUAGAUUUAAAUAUCAUUUGUCCCUUGGCAGCACAUUAAGUACA [JR_Nu_SSTheophyB_Sub021]", "Low"],
  ["ACGUGGAAAAUUUGUGGUGCUGCCUCAGGCCGAGGACCGGUACGGCCGCCACUCGUACAUGAGGAUCACCCAUGUCGAGUCACUG [Isanso]", "Low"],
  ["GGAUAGGACACGGCCGCCACUACCUAGGAUACUAGCAACAUUUGGGUACAUGAGGAUCACCCAUGUAGGACCGGGUGUCCUAUCG", "Medium"],
  ["CAUGCGGCUAGUGAGCGUGGUGAGUAAAGGCGAGGACCGGUACGGCCGCCACUCGAGGCAAGACAUGAGGAUCACCCAUGUUGUA [theeternabot_exclusion_MS2_Trp_A_27]", "Low"],
  ["UGUAACAUGAGGAUCACCCAUGUGAGUGAUACCAGACUAGUGUUAGUCCCUUGGCAGCACGCUGGGCGAGUGUGUAGUCUAUGCG [Same State - Theophylline A (Freestyle 16)]", "High"],
  ["UGUGGGUCCGAAGAUACCAGCCAGCACAGCAUGUGUUUAAACAUGAGGAUCACCCAUGUCGGCCCUUGGCAGCUUGGUUUGGACG [theeternabot_exclusion_MS2_Theo_B_7]", "Low"],
  ["UGUAUGUGAUUUGAUACCAGACCAACUGGUAAAACAUGAGGAUCACCCAUGUAAACUUGGGUCCCUUGGCAGCAAAUCGCAUACU [SSTheo B #22]", "High"]
]}
